Data credit: the supplement of paper PMC7877785

# MEASUREMENT PROTOCOL: self-splicing fitness, log relative to wild type (ln ratio); higher = more splicing; Tetrahymena group I intron in knt gene, E. coli kanamycin selection, DiMSum; sequences stand for … in CUCUCU…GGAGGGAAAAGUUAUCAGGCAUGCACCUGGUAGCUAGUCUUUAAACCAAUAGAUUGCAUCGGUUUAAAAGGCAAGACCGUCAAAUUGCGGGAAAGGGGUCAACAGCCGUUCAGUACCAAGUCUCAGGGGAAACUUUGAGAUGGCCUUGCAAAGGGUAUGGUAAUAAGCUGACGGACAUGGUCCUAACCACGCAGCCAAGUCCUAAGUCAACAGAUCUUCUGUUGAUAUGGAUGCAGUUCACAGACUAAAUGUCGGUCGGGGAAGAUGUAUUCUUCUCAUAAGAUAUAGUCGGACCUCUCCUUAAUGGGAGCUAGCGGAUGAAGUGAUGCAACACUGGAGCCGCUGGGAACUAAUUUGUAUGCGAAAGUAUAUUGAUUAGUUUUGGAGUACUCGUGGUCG;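 further: selection with 25 µg/mL kanamycin versus none on LB agar overnight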
# CONDITIONS USED: 30 °C
Record Fulfilled whenever self-splicing fitness (ln) is at -2 or higher; record Not fulfilled when lower.

Ask | In plain terms: is recorded self-splicing fitness (ln) at least -2 for GAGCAGCAAUAUUACGUCCC ?
Reply | Fulfilled

Ask | In plain terms: is recorded self-splicing fitness (ln) at least -2 for CUUAAGCAAUAUUACGGGUU ?
Reply | Not fulfilled

Ask | In plain terms: is recorded self-splicing fitness (ln) at least -2 for CCUGAGCAAUAUUACGAUGU ?
Reply | Fulfilled

Ask | In plain terms: is recorded self-splicing fitness (ln) at least -2 for CUUGAGCAAUAUUACGGUGA ?
Reply | Not fulfilled

Ask | In plain terms: is recorded self-splicing fitness (ln) at least -2 for UGGAAGCAAUAUUACGCACG ?
Reply | Fulfilled

Ask | In plain terms: is recorded self-splicing fitness (ln) at least -2 for UGUGAGCAAUAUUACGGAAG ?
Reply | Not fulfilled

Ask | In plain terms: is recorded self-splicing fitness (ln) at least -2 for CUCCAGCAAUAUUACGCACA ?
Reply | Fulfilled

Ask | In plain terms: is recorded self-splicing fitness (ln) at least -2 for CAGAAGCAAUAUUACGACUG ?
Reply | Not fulfilled

Ask | In plain terms: is recorded self-splicing fitness (ln) at least -2 for UUAAAGCAAUAUUACGAUAG ?
Reply | Fulfilled

Ask | In plain terms: is recorded self-splicing fitness (ln) at least -2 for AGCCAGCAAUAUUACGAGCU ?
Reply | Not fulfilled

Ask | In plain terms: is recorded self-splicing fitness (ln) at least -2 for CCCAAGCAAUAUUACGAGUC ?
Reply | Not fulfilled

Ask | In plain terms: is recorded self-splicing fitness (ln) at least -2 for UUACAGCAAUAUUACGCAGA ?
Reply | Fulfilled

Ask | In plain terms: is recorded self-splicing fitness (ln) at least -2 for UCCCAGCAAUAUUACGACCU ?
Reply | Not fulfilled

Ask | In plain terms: is recorded self-splicing fitness (ln) at least -2 for GUGCAGCAAUAUUACGAGCG ?
Reply | Fulfilled

Ask | In plain terms: is recorded self-splicing fitness (ln) at least -2 for AUAAAGCAAUAUUACGGGUA ?
Reply | Fulfilled

Ask | In plain terms: is recorded self-splicing fitness (ln) at least -2 for ACCGAGCAAUAUUACGGCGU ?
Reply | Fulfilled
